- Tested on: PfAP2-LT AP2 domain (GST-tagged)
- procedure-summary: gcPBM binding intensity (ln(normalized median fluorescence intensity)); higher = stronger DNA binding
In all, about 25,000 sequences were measured (“ln(normalized median fluorescence intensity)”: median about 8.9, highest 2% from about 10 on). This excerpt belongs to a sample that is enriched for the highest values.
If the reported gcPBM binding intensity (ln) equals or exceeds 9, assign class 1. If not, assign class 0.

Quick check: does TATATAAATAGATACACACATACATACATACATACA [CACACA_site260] have gcPBM binding intensity (ln) greater than or equal to 9?
class 1

Is it the case that CATATACATAAACACACACACACATAAATAAATATA [CACACA_site4864] has gcPBM binding intensity (ln) reaching or exceeding 9?
class 1

Quick check, gcPBM binding intensity (ln) >= 9? TATATAAATAGACACACACACATATAAATATAAATA [CACACA_site6503]
class 1

Is gcPBM binding intensity (ln) for AAAAAACACGGACACACACACATATACATACATACA [CACACA_site5470] at or above 9?
class 1

Threshold query (gcPBM binding intensity (ln) >= 9) on TTATAAATAAAAAATACACACATATATATATATATA [CACACA_site207]
class 1

Test whether the sequence TAATTTTTTAGACACACACACATATAAATATAAATA [CACACA_site6195] records gcPBM binding intensity (ln) of 9 or higher.
class 1

Confirm if gcPBM binding intensity (ln) reported for the sequence TAAATTTATAGACACACACACATATAAATAAATATA [CACACA_site6530] is 9 or above.
class 1

I'd appreciate it if you could say whether CAAAAAAAATAAAACACACACACAAAAAAATAAAAA [CACACA_site466] has gcPBM binding intensity (ln) at least equal to 9.
class 1

Reported gcPBM binding intensity (ln) reaches at least 9 for TACATATATAAAAAAACACACACATATATATATATA [CACACA_site8315] ?
class 1

gcPBM binding intensity (ln) >= 9 for TATACACCCGGACACACACACATATATATATATATA [CACACA_site5030] ?
class 1

Entry AATGGGTAAACATACACACACACATATATATATATA [CACACA_site1991] : is its gcPBM binding intensity (ln) no less than 9?
class 1

Determine whether this sequence has gcPBM binding intensity (ln) no lower than 9: ATTCATTCATATGTTACACACACACCCACCCATAAA [CACACA_site9066]
class 1

In plain terms: is recorded gcPBM binding intensity (ln) at least 9 for TTTTGTTATTAGAGGGTGCTTATAATGAACTCCTAC ?
class 0

Tell me whether gcPBM binding intensity (ln) is at least 9 here: CACATACACCCATACACACACATATATATTAAGATA [CACACA_site4459]
class 1

Does the reported gcPBM binding intensity (ln) for CAACAAAATAAACACACACACACAAACACAAAAAAA [CACACA_site5806] fall at or above the 9 mark?
class 1

Form field: gcPBM binding intensity (ln) at least 9? Entry: GCTATAAATACAGACGCACACATATACATACATATA [CACACA_site3329]
class 1

Is the recorded value of gcPBM binding intensity (ln) equal to or greater than 9 for this sequence? TATATATATAGACACACACACATATAAATAAATAAA [CACACA_site444]
class 1

Would you say AAAAAAAACGGACACACACACATAAATATATATAAA [CACACA_site4260] shows gcPBM binding intensity (ln) at minimum 9?
class 1

Does the reported gcPBM binding intensity (ln) for ATATATAATATTTTTATTTTTATTTTTTTTTTATGA [TGCATGCA_negctrl_site577] fall at or above the 9 mark?
class 0

Could you verify whether the entry TTTTTTAAATAATATTGTACAAAAAATGTATAAATA [XGTACX_site3010] shows gcPBM binding intensity (ln) of no less than 9?
class 0

Determine whether this sequence has gcPBM binding intensity (ln) no lower than 9: GTTTTTTTTTTTTTGGTGCGTCATTTTCAAAAGAAG [GTGCAC_site9745]
class 0

Confirm if gcPBM binding intensity (ln) reported for the sequence AACAGAATAATACTAAATGAACGATTTCTCTTTATG [GTGCAC_negctrl_site376] is 9 or above.
class 0

Determine whether measured gcPBM binding intensity (ln) meets or exceeds 9 for TTTATTAATAATTATACACACATATAAAATGAATAA [CACACA_site1359]
class 0

Hi, just wondering whether GTACATACATAAAACACACACATATATATATATATA [CACACA_site1826] shows gcPBM binding intensity (ln) of 9 or higher.
class 1

* * *

- Tested on: PfAP2-LT AP2 domain (GST-tagged)
- procedure-summary: gcPBM binding intensity (ln(normalized median fluorescence intensity)); higher = stronger DNA binding
Whole data set: some 25,000 sequences, median “ln(normalized median fluorescence intensity)” near 8.9, cut for the highest 2% near 10. For the sample, the highest values were picked, then their nearest neighbours and some sequences at random.
# gcPBM binding intensity (ln) >= 9 gives criterion met, anything below gives criterion not met

Is reported gcPBM binding intensity (ln) greater than or equal to 9 here: TTTTTTAAGTAATGAAATGATTTTCTTATAGAATAA [GTGCAC_negctrl_site395]
criterion not met

Hello, I need to know if GTAATCCACAAACACACACACATACACATATATATA [CACACA_site2728] has measured gcPBM binding intensity (ln) not below 9. Thanks!
criterion met

Would you say CGTACATAATTTTAATCACACACAAACAAACACATA [CACACA_site7947] shows gcPBM binding intensity (ln) at minimum 9?
criterion met

* * *

- Tested on: PfAP2-LT AP2 domain (GST-tagged)
- procedure-summary: gcPBM binding intensity (ln(normalized median fluorescence intensity)); higher = stronger DNA binding
The full ranking holds about 25,000 sequences; the median of “ln(normalized median fluorescence intensity)” is about 8.9, and the highest 2% start at about 10. The full list was thinned out, with the highest values kept by preference.
Task for the reader: assign each of the following sequences its reported gcPBM binding intensity (ln).
Lab note: jot down the number only; don't add units.

// returns reported gcPBM binding intensity (ln) for input GAATACATAATAACATGTACACACATTCTTCTATAA [XGTACX_site8725]
9.01

Reported gcPBM binding intensity (ln), sequence GGCAAATTTATTATACCCACATACATACATACATAC [XGTACX_negctrl_site186] : ____
9.01

// query gcPBM binding intensity (ln) value for entry ACCAAATCATATATAGCACACAAATTCTTTATTATT [CACACA_site8911]
8.94

* * *

- System: PfAP2-LT AP2 domain (GST-tagged)
- procedure-summary: gcPBM binding intensity (ln(normalized median fluorescence intensity)); higher = stronger DNA binding
Whole data set: some 25,000 sequences, median “ln(normalized median fluorescence intensity)” near 8.9, cut for the highest 2% near 10. For the sample, the highest values were picked, then their nearest neighbours and some sequences at random.
Please enter Satisfied where gcPBM binding intensity (ln) is greater than or equal to 9, and Not satisfied where it is lower.

API: above_or_equal(metric=gcPBM binding intensity (ln), cutoff=9) for item TCTTATCCATATATTACACACTATATATAGAAATTA [CACACA_site291]
Not satisfied

Quick check, gcPBM binding intensity (ln) >= 9? TATAAAAAAATATATATATATATTATATGTGTAGAA [TGCATGCA_negctrl_site391]
Not satisfied

Textbook exercise: given the entry CAATCAAATAGACACACACACACCTAAACATAAAAG [CACACA_site7322] , state whether its gcPBM binding intensity (ln) is greater than or equal to 9.
Satisfied

Could you tell me if the measured gcPBM binding intensity (ln) of CCTGAACACATACATACACACACACTAATAAAAAAA [CACACA_site8023] reaches 9 or more?
Satisfied

Test whether the sequence AAAAAGAAATATTTATGTACATAATAATAATATTTT [XGTACX_site4693] records gcPBM binding intensity (ln) of 9 or higher.
Not satisfied

Reported gcPBM binding intensity (ln) at or above 9? TAATAAAGTGAATAATGTACATTTTATTTATTATAT [XGTACX_site6614]
Not satisfied

Please tell me: is the sequence TACACAAGAAAATTCACACACACACCGATATATATA [CACACA_site6008] at or over 9 in terms of gcPBM binding intensity (ln)?
Satisfied

Exam item: decide whether the reported gcPBM binding intensity (ln) for AAAAAAAAAAAACACACACACACACTAGTACATACA [CACACA_site4551] is at least 9.
Satisfied

Identify whether the reported gcPBM binding intensity (ln) of the following sequence is 9 or greater: TTAATACCCAGACACACACACACAAAATAAAATACA [CACACA_site7968]
Satisfied

Determine whether measured gcPBM binding intensity (ln) meets or exceeds 9 for TACACAAGAAAATTCACACACACACCCATATATATA [CACACA_site3879]
Satisfied

Reported gcPBM binding intensity (ln) reaches at least 9 for ATTATGCACCAACACACACACACACCCCTAAAAAAT [CACACA_site2568] ?
Satisfied

Given the entry AAAAAATTAGATTATGCACACACACTAATAAATAAT [CACACA_site8604] , answer whether its gcPBM binding intensity (ln) meets or surpasses 9.
Satisfied

Assess whether reported gcPBM binding intensity (ln) for CAATCAAATGGACACACACACACCTAAACATAAAAG [CACACA_site5524] sits at 9 or higher.
Satisfied

Is it the case that TGGAACCTTTAAAATACACACCCAAATCCTTTGAAA [CACACA_site7671] has gcPBM binding intensity (ln) reaching or exceeding 9?
Not satisfied

Item TGCACAGACGGACACACACACAACTAAAAAATAATG [CACACA_site5424] with gcPBM binding intensity (ln) of 9 or above?
Satisfied

Hi team, for AAAACAAAAGAATTCACACATATATATATATATATA [CACACA_site4777] , is the recorded gcPBM binding intensity (ln) at or above 9?
Satisfied

Check if gcPBM binding intensity (ln) >= 9 (inclusive). Item: ATACTAAAAAGTATCTGTACTTATTTTAAAAATAAA [XGTACX_site4116]
Not satisfied

# check: gcPBM binding intensity (ln) of CAATCAAAGAAACACACACACACCTAAACATAAAAG [CACACA_site2756] is greater than or equal to 9
Satisfied

Decide: gcPBM binding intensity (ln) of TATACATATATATATATATATAGATATATTCACGTG [XGTACX_negctrl_site265] >= 9?
Satisfied
